src = ChEMBL document CHEMBL1140929

Overview of recorded Drug uptake for various compounds
Tested on: Lung
assayComment: Biodistribution in NMRI mouse lung assessed per gram of tissue at 3.7 MBq/mL, iv after 2 mins by gamma counting
Assay type: ADME, organism-based
conditionSummary: in vivo

{"molecule": "Cc1ccc2nc(-c3ccc([18F])cc3)sc2c1", "Drug uptake (% ID/g)": 14.4}
{"molecule": "Oc1ccc2nc(-c3ccc([18F])cc3)sc2c1", "Drug uptake (% ID/g)": 28.1}
{"molecule": "[11CH3]Nc1ccc(-c2nc3ccc(O)cc3s2)cc1", "Drug uptake (% ID/g)": 3.6}
{"molecule": "COc1ccc2nc(-c3ccc([18F])cc3)sc2c1", "Drug uptake (% ID/g)": 9.9}
